tested on: PC-3 prostate; assay: NCI tumour cell line growth inhibition, 48 h
Where a SMILES comes first, the peptide text is derived from it. [ ]: non-standard residue; d: D form. The star is where a group is joined. Bn2Val = CC(C)[C@@H](C(=O)*)N(Cc1ccccc1)Cc1ccccc1; NH(3,4-diMeO-benzyl) = COc1ccc(CN*)cc1OC; NMeV = CN[C@H](C(=O)O)C(C)C

# compound, target-entity, TGI
measured = [
    ("CCOC(=O)N1C=CC(=C2C(=C3C=CN(C(=O)OCC)C=C3)C(=C3C=CN(C(=O)OCC)C=C3)C2=C2C=CN(C(=O)OCC)C=C2)C=C1", "PC-3 prostate", "91.7 µM"),
    ("Oc1cccc2c1[nH]c1c(C3=C[C@@]4(O)CC/C=C\\CCCCN5CC[C@@H]3[C@]3(CC6/C=C\\CCCCN6[C@H]34)C5)nccc12 (stereo partly specified)", "PC-3 prostate", "3.87 µM"),
    ("Cc1ccc(C2=NN(c3ccc(S(N)(=O)=O)cc3)C(c3cn(-c4ccccc4)nc3-c3ccccc3)C2)cc1 (stereo unspecified)", "PC-3 prostate", "> 100 µM"),
    ("N#CCc1nc(-c2cc3c(ccc4ccccc43)oc2=O)cs1", "PC-3 prostate", "> 100 µM"),
    ("CCOP(=O)(OCC)C(Nc1ccc(C(=O)O)cc1)c1ccc(C(Nc2ccc(C(=O)O)cc2)P(=O)(OCC)OCC)cc1 (stereo unspecified)", "PC-3 prostate", "> 100 µM"),
    ("CCOC(=O)c1ccc(Nc2nc3cc(C(F)(F)F)ccc3nc2C(=O)OCC)cc1", "PC-3 prostate", "> 100 µM"),
    ("Cc1cc(O)c2c(c1)CC(O)C1=C2C(=O)c2c(O)ccc(OC3CC(O)C(OC4CC(OC5CCC(O)C(C)O5)C(O)C(C)O4)C(C)O3)c2C1=O (stereo unspecified)", "PC-3 prostate", "3.96 µM"),
    ("CC12C(=O)OC(=O)C1(C)C1C=CC2O1 (stereo unspecified)", "PC-3 prostate", "> 100 µM"),
    ("ClCCN(CCCl)c1ccc(CNCCCNCc2ccc(N(CCCl)CCCl)cc2)cc1", "PC-3 prostate", "26.5 µM"),
    ("Cc1nn(C)c2cc(N(C)c3ccnc(Nc4cccc(S(N)(=O)=O)c4)n3)ccc12", "PC-3 prostate", "> 25 µM"),
    ("COc1ccc2c(c1)C(=O)c1c-2c(NCCN(C)C)nc2ccccc12", "PC-3 prostate", "14.2 µM"),
    ("O=C(CC(=O)N1N=C(N(c2ccccc2)c2ccccc2)CC1c1ccccc1)Nc1ccccc1 (stereo unspecified)", "PC-3 prostate", "> 100 µM"),
    ("OC(CC(O)(C(F)(F)F)C(F)(F)F)C(O)c1ccco1 (stereo unspecified)", "PC-3 prostate", "> 10 µM"),
    ("NC(CC(=O)O)(Cc1ccccc1)C(=O)O (stereo unspecified)", "PC-3 prostate", "> 100 µM"),
    ("CC1=C2CN(C(=O)OCC(C)C)CCC2C2=C(C(=O)c3ccccc3C2=O)C1C (stereo unspecified)", "PC-3 prostate", "> 10 µM"),
    ("N#CSc1ccc(S(N)(=O)=O)cc1", "PC-3 prostate", "> 100 µM"),
    ("COCN1C(=O)[C@@H]2CCCN2C(=O)c2ccc([N+](=O)[O-])cc21", "PC-3 prostate", "> 100 µM"),
    ("C/C(=C\\c1ccn(-c2ccc(N)cc2F)n1)[C@@H]1C[C@@H]2O[C@]2(C)CCC[C@H](C)[C@H](O)[C@@H](C)C(=O)C(C)(C)[C@@H](O)CC(=O)O1", "PC-3 prostate", "> 50 µM"),
    ("COc1cc2c(cc1OC)-c1cc3ccc(OC)c(OC)c3c[n+]1CC2", "PC-3 prostate", "> 100 µM"),
    ("O=S(=O)(O)C(Cc1nc2ccccc2[nH]1)S(=O)(=O)OCCC1S(=O)(=O)OCCOS1(=O)=O (stereo unspecified)", "PC-3 prostate", "> 100 µM"),
    ("CN1CCN(CC(=O)N2c3cccc4cccc(c34)N(C(=O)CN3CCN(C)CC3)C2c2cn(-c3ccccc3)nc2-c2cccc([N+](=O)[O-])c2)CC1", "PC-3 prostate", "10.4 µM"),
    ("C=C1C(=O)O[C@H]2[C@H]1CC/C(COC(=O)NCc1cc(OC)cc(OC)c1)=C\\CC[C@@]1(C)O[C@@H]21", "PC-3 prostate", "8.67 µM"),
    ("CCN(CC)CCCNc1ncc(C)c2c1c1ccc3c(O)cccc3c1n2C", "PC-3 prostate", "2.16 µM"),
    ("CCOC(=O)c1cc2cc(C)cc(C(=O)c3ccc([N+](=O)[O-])cc3)c2[nH]1", "PC-3 prostate", "> 100 µM"),
    ("Nc1c2ccccc2nc2ccccc12 (tested in a mixture with another compound)", "PC-3 prostate", "11.1 µM"),
    ("COc1ccc(CNC(=O)[C@@H]2CCCN2C(=O)[C@@H]2CCCN2C(=O)[C@H](C(C)C)N(C)C(=O)[C@@H](NC(=O)[C@H](C(C)C)N(Cc2ccccc2)Cc2ccccc2)C(C)C)cc1OC (Bn2Val-V[NMeV]PP-{NH(3,4-diMeO-benzyl)})", "PC-3 prostate", "30.8 µM"),
    ("Cn1c(=N)n[n+]([O-])c2ccccc21", "PC-3 prostate", "> 100 µM"),
    ("CCOC(=O)c1cc(Br)c(-c2onc(C)c2Br)n1C", "PC-3 prostate", "> 100 µM"),
    ("C[C@@H]1OCC2(CCN(c3cnc(Sc4ccnc(N)c4Cl)c(N)n3)CC2)[C@@H]1N", "PC-3 prostate", "> 100 µM"),
    ("O=C(/C=C/c1ccc2c(c1)OCO2)CC(=O)/C=C/c1ccc2c(c1)OCO2", "PC-3 prostate", "> 100 µM"),
    ("Clc1ccc2c(NCCNc3nc(N4CCCC4)nc4ccccc34)ccnc2c1", "PC-3 prostate", "8.73 µM"),
    ("O=C(O)c1ccc(NNC(=O)c2cccc3c(=O)c4ccccc4[nH]c23)cc1", "PC-3 prostate", "> 100 µM"),
    ("Cc1ccc2c(c1)C=CC(C#N)N2C(=O)Oc1ccccc1 (stereo unspecified)", "PC-3 prostate", "97.9 µM"),
    ("CC1=CC(=O)c2ccc(C)cc2C1=O", "PC-3 prostate", "44.1 µM"),
    ("Cn1c(=O)c2[nH]c(CCCCc3nc4c([nH]3)c(=O)n(C)c(=S)n4C)nc2n(C)c1=S", "PC-3 prostate", "> 100 µM"),
    ("COC(=O)[C@H](COC(=O)/C=C/c1ccc(OC(C)=O)c(OC(C)=O)c1)NC(=O)/C=C/c1ccc(OC(C)=O)c(OC(C)=O)c1", "PC-3 prostate", "31.2 µM"),
]

The origin of these recorded values is PubChem BioAssay (NCI).
